Origin of values: patent US4275071A

testName: in vivo
assayContext: mouse, in vivo, ip
resultType: LD50 (mg/kg)
All answers are understood in mg/kg, so give the number only.

Before answering, review these 6 worked examples.
>  <compound>
CC(C)(C(O)c1ccc(-c2ccccc2)cc1)n1ccnc1 (stereo not shown)

>  <measurementUnit>
mg/kg

>  <LD50>
420

$$$$
>  <compound>
Cc1cc(C)c(C)c(C(=O)Cn2ccnc2)c1C

>  <measurementUnit>
mg/kg

>  <LD50>
420

$$$$
>  <compound>
OC(Cn1ccnc1)c1ccc(C2CCCCC2)cc1 (stereo not shown)

>  <measurementUnit>
mg/kg

>  <LD50>
490

$$$$
>  <compound>
CCC1(c2ccccc2)C(=O)NC(=O)NC1=O [Phenobarbital, phenobarbital, reference compound]

>  <measurementUnit>
mg/kg

>  <LD50>
242

$$$$
>  <compound>
CC(C)CCSc1ccc(C(O)Cn2ccnc2)cc1 (stereo not shown)

>  <measurementUnit>
mg/kg

>  <LD50>
420

$$$$
>  <compound>
Cc1c(C)c(C)c(C(O)Cn2ccnc2)c(C)c1C (stereo not shown)

>  <measurementUnit>
mg/kg

>  <LD50>
655

$$$$

Would you kindly look at the next entry?
*Q* Tell me measured LD50 for OC(Cn1ccnc1)c1ccc(-c2ccccc2)cc1 (stereo not shown) please.
*A* 1.15

* * *

testName: in vivo
assayContext: mouse, in vivo, po
Rule: measured LD50 below 1000 mg/kg gets t; anything equal to or greater than 1000 mg/kg gets f.

Recorded results for 8 compounds are shown here.
>  <compound>
Cc1c(C)c(C)c(C(O)Cn2ccnc2)c(C)c1C (stereo not drawn) [Compound 1516]

>  <groupLabel>
f

$$$$
>  <compound>
Cc1c(C)c(C)c(C(=O)Cn2ccnc2)c(C)c1C [Compound 1518, 3-(N-imidazolyl-acetyl)-6-methyl-durene]

>  <groupLabel>
f

$$$$
>  <compound>
OC(Cn1ccnc1)c1ccc(C2CCCCC2)cc1 (stereo not drawn) [Compound 1534]

>  <groupLabel>
f

$$$$
>  <compound>
CC(C)(C(O)c1ccc(-c2ccccc2)cc1)n1ccnc1 (stereo not drawn) [Compound 1492]

>  <groupLabel>
f

$$$$
>  <compound>
CCC1(c2ccccc2)C(=O)NC(=O)NC1=O [Phenobarbital, phenobarbital, reference compound]

>  <groupLabel>
t

$$$$
>  <compound>
O=C(OC(Cn1ccnc1)c1ccc(-c2ccccc2)cc1)c1ccccc1 (stereo not drawn) [Compound 1575]

>  <groupLabel>
f

$$$$
>  <compound>
Cc1cc(C)c(C)c(C(=O)Cn2ccnc2)c1C [Compound 1323, 3-(N-imidazolyl-acetyl)-durene]

>  <groupLabel>
t

$$$$
>  <compound>
CC(C)(C(=O)c1ccc(-c2ccccc2)cc1)n1ccnc1 [Compound 1488]

>  <groupLabel>
t

$$$$

Kindly consider the entry below.
*Q* # check: LD50 < 1000 mg/kg for O=C(Cn1ccnc1)c1ccc(CCc2ccccc2)cc1 [Compound 1532, 4-(N-imidazolyl-acetyl)-bibenzyl]
*A* t

* * *

System: pentylenetetrazol (Metrazol) seizure in mice
testName: Subcutaneous pentylenetetrazol (Metrazol) seizure threshold test (MET) in the mouse
Format: in vivo
assayContext: po, 1 h; mouse, os; pentylenetetrazol 130 mg/Kg s.c. 60 minutes after administration; observed 60 minutes; read-out: ED50 - MET
Below is a list of entries, each paired with its recorded ED50 value.
All answers are understood in mg/kg, so give the number only.

>  <compound>
OC(Cn1ccnc1)c1ccc(C2CCCCC2)cc1 (stereo not shown)

>  <ED50, mg/kg>
27

$$$$

*Q* Tell me measured ED50 for Cc1c(C)c(C)c(C(O)Cn2ccnc2)c(C)c1C (stereo not shown) please.
*A* 35

*Q* Tell me measured ED50 for CC(C)(C(O)c1ccc(-c2ccccc2)cc1)n1ccnc1 (stereo not shown) please.
*A* 14

*Q* Tell me measured ED50 for O=C1NC(=O)C(c2ccccc2)(c2ccccc2)N1 [Diphenylidantoin, diphenylidantoin, reference compound] please.
*A* 5

* * *

Below is a list of entries, each paired with its recorded log10 of ED50 value.
Test system: maximum electroshock seizure in mice
testName: Maximum electroshock seizure test (MES) in the mouse
Format: in vivo, mouse (albino race)
assayContext: po; mouse, os; electroshock 60 Hz, 0.2 sec, 25 mA, 30 or 60 minutes after administration; read-out: ED50 - MES
Base-10 log of ED50, unit mg/kg.

Before answering, review these 8 worked examples.
>  <compound>
Cc1c(C)c(C)c(C(=O)Cn2ccnc2)c(C)c1C

>  <recordedNumber>
1.65

$$$$
>  <compound>
Cc1c(C)c(C(=O)Cn2ccnc2)c(C)c(C)c1Cl

>  <recordedNumber>
1.90

$$$$
>  <compound>
OC(Cn1ccnc1)c1ccc(C2CCCCC2)cc1 (centres unmarked)

>  <recordedNumber>
1.78

$$$$
>  <compound>
Cc1c(C)c([N+](=O)[O-])c(C)c(C)c1C(=O)Cn1ccnc1

>  <recordedNumber>
1.73

$$$$
>  <compound>
OC(Cn1ccnc1)c1ccc(CCc2ccccc2)cc1 (centres unmarked)

>  <recordedNumber>
1.08

$$$$
>  <compound>
O=C1NC(=O)C(c2ccccc2)(c2ccccc2)N1 [Diphenylidantoin, diphenylidantoin, reference compound]

>  <recordedNumber>
1.00

$$$$
>  <compound>
Cc1c(C)c(C(O)Cn2ccnc2)c(C)c(C)c1Cl (centres unmarked)

>  <recordedNumber>
2.18

$$$$
>  <compound>
CC(C)CCSc1ccc(C(O)Cn2ccnc2)cc1 (centres unmarked)

>  <recordedNumber>
1.49

$$$$

*Q* Please respond with reported log10 of ED50 (system maximum electroshock seizure in mice) for Cc1c(C)c(C)c(C(O)Cn2ccnc2)c(C)c1C (centres unmarked) .
*A* 1.76

*Q* Please respond with reported log10 of ED50 (system maximum electroshock seizure in mice) for O=C(OC(Cn1ccnc1)c1ccc(-c2ccccc2)cc1)c1ccccc1 (centres unmarked) .
*A* 2.13

*Q* Please respond with reported log10 of ED50 (system maximum electroshock seizure in mice) for CC(C)(C(O)c1ccc(-c2ccccc2)cc1)n1ccnc1 (centres unmarked) .
*A* 1.43
